tested on: UACC-257 melanoma; assay: NCI-60 one-dose screen, 48 h; details: 10 µM
This is part of a sample that, as a whole, favours compounds with a hit. Of some 83,000 tested, about 20% had one in any assay. The source made the active and inactive calls. How the source made its calls: active means growth percent below 10; inactive means the rest.
Use one of these outcomes when replying: active, inactive

Study these solved cases before continuing.
C/C(=N\Nc1nc2ccccc2s1)c1ccncn1    inactive
CCN(CC)CCSCCCNc1c2ccc(Cl)cc2nc2ccc(OC)cc12    active
COc1ccc(/C=C/C(=O)Nc2ccc(-c3nc4ccc(OC)cc4s3)cc2)cc1    inactive

Status in this test for `CCN(CC)CCCOCCCNc1cc(OC)cc2cccnc12` ?
inactive

====

test system: U251 CNS; assay: NCI-60 one-dose screen, 48 h (100 = growth as untreated, 0 = no growth, -100 = all killed); conditions: 10 µM
About 83,000 compounds went through this panel and 20% of them were active in at least one assay; those are over-represented in the sample as a whole.
Entries annotated with measured growth
// note: answer is a bare numeric in %

A selection of reference data follows.
O=C1/C(=C/c2ccc([N+](=O)[O-])s2)Oc2ccccc21    -76.5
Cc1nc2oc3ccccc3c(=O)c2cc1C(=O)NCc1ccccc1    64.7
N=c1nc(N)ncn1-c1ccccc1    95.1

Fill in the blank: the reported growth of `N#CCCN1C/C(=C/c2ccccc2)C(=O)/C(=C/c2ccccc2)C1` is ____.
-0.696

What value of growth has been recorded for this entry: `COc1ccc(-c2nn(-c3cccc(NC(=O)c4cc(C(F)(F)F)cc(C(F)(F)F)c4)c3)cc2-c2ccncc2)cc1Cl`
54.7

====

tested on: HT29 colon; experiment: NCI-60 one-dose screen, 48 h (100 = growth as untreated, 0 = no growth, -100 = all killed); settings: 10 µM
This is part of a sample that, as a whole, favours compounds with a hit. Of some 83,000 tested, about 20% had one in any assay.
QUANTITY_KIND: growth (%)
Numeric answer only, unit % assumed.

Would you kindly share the measured growth for `CN(C)CCN=c1nc2c(c(N)n1-c1ccccc1)c(=S)n(-c1ccccc1)c(=S)n2-c1ccccc1` ?
-35.7

For `CC(C)N(CCNc1nc(C(Cl)(Cl)Cl)nc2cc(Cl)ccc12)C(C)C` , what is its reported growth?
-32.9

For `COc1ccc(-c2nn(-c3cccc(NC(=O)Nc4cc(C(F)(F)F)cc(C(F)(F)F)c4)c3)cc2-c2ccncc2)cc1Cl` , what is its reported growth?
-17.4

====

system: SK-MEL-5 melanoma; test: NCI-60 one-dose screen, 48 h (100 = growth as untreated, 0 = no growth, -100 = all killed); settings: 10 µM
The panel holds about 83,000 compounds, 20% with a hit somewhere; the sample as a whole holds those more often.
Recorded growth by entry
Write down the numeric answer in % and omit the unit.

OCC1OC(n2cnc3c(N/N=C\c4ccccn4)ncnc32)C(O)C1O (centres undefined)    -10.1
CC(=O)CSC(C)=O    98.9
Cn1c(C(N)=O)cc2c1-c1nc(Nc3ccccc3)ncc1CCC2    72.1
Clc1cccc(-c2nc(-c3cccs3)no2)c1    90.1
Cc1occc1-c1nnc(SCC(=O)c2ccc(NC(=O)CC(C)C)cc2)o1    94.9

Item under review: `CCN(CC)CCOc1nc2cc(OC)c(OC)cc2c2c1-c1ccc(OC)cc1C2=O` . Reported growth?
91

Need growth, item `CSCCCNC(=O)c1ccc2c(c1)/C(=C/c1[nH]c(C)cc1C)C(=O)N2`
30.5

Bench note: what growth did `O=C(/C=C/c1cc2ccccc2[nH]c1=O)c1ccc2c(c1)OCO2` show?
96

Need growth of `COc1cc(-c2cc(/C=C/C(=O)c3ccc(Cl)c(Cl)c3)[nH]n2)cc(OC)c1OC` , thanks.
84.1

Query: growth; subject: `O=C(Nc1cccc(Br)c1)c1cc(=O)[nH]c2ccccc12`
95.5

Sample `O=C(N/N=C\c1cc(Cl)ccc1[N+](=O)[O-])c1ccco1` — what was its growth?
111

For the molecule shown here, S=C1SCC(c2ccccc2)S1 (centres undefined) , give the reported growth.
103

What does the record list as growth for `COC(=O)c1ccc(=O)oc1` ?
103

Would you kindly share the measured growth for `COc1ccc(-c2nc3sccn3c2-c2nc3c([nH]2)C(=O)c2ccccc2C3=O)cc1` ?
89

Fill in: growth of `Cc1ccc(NC(=O)CSc2nc3ccccc3c(=O)n2CCc2ccccc2)c(C(=O)O)c1` is ___
105

Query: growth; subject: `COc1ccc(-c2nc(-c3nc4cc(Cl)c(F)cc4[nH]3)c3ccccn23)cc1`
59.4

Look up growth for this molecule: `O=S(=O)(NCCCNc1nccc(-c2c(-c3ccc(F)cc3)nc3sccn23)n1)c1ccc2ccccc2c1`
43.4

Data request, read-out growth, for `Nc1c(C(=O)Nc2ccccc2)sc2nc3c(cc12)CCCC3`
31.8

Requested field: growth. Item: `Cc1cccc(NC2=C(C#N)C(=O)NC3(CCCC3)S2)c1`
95.7

====

test system: OVCAR-4 ovarian; assay: NCI-60 one-dose screen, 48 h; conditions: 10 µM
About 83,000 compounds went through this panel and 20% of them were active in at least one assay; those are over-represented in the sample as a whole. Activity calls are given as the source filed them. The calls were made as follows: active = growth percent below 10; inactive = the rest.
Please reply with one of these outcomes: active, inactive

Record excerpt, results attached:
CCCCCCNC(=O)Oc1ccc(/C(=C(/CC)Cc2ccccc2)c2ccc(OCCN3CCCCC3)cc2)cc1    inactive
COc1cc(-c2cc(/C=C/C(=O)c3ccc4c(c3)OCO4)[nH]n2)cc(OC)c1OC    inactive
Cc1cc(N(CCCNc2ccnc3cc(Cl)ccc23)Cc2cccs2)nc(Cl)n1    inactive
CCN1Cc2c(/C=C/c3ccccc3)nc3ccc(OC)cc3c2N(c2cccc(Cl)c2)C1    inactive
CC(=O)[C@H]1CC[C@H]2[C@@H]3CCC4=CC(=O)C=C[C@]4(C)[C@H]3CC[C@]12C    inactive

Shifting focus to the compound that follows.
Which outcome did this test record for the compound `COc1cc(-c2cc(/C=C/C(=O)c3ccc(Cl)c(Cl)c3)[nH]n2)cc(OC)c1OC` ?
inactive

====

Listing: growth of selected compounds
test system: A498 renal; test: NCI-60 one-dose screen, 48 h (100 = growth as untreated, 0 = no growth, -100 = all killed); conditions: 10 µM
Compounds without any hit were thinned out: in the full panel of roughly 83,000, 20% have a hit. Activity calls are given as the source filed them. The calls were made as follows: active = growth percent below 10; inactive = the rest.

CCN(CC)CCSCCCNc1c2ccc(Cl)cc2nc2ccc(OC)cc12    -77.7% (active)
O=C(Nc1cccc(-n2cc(-c3ccncc3)c(-c3cc(O)cc(Cl)c3)n2)c1)c1ccc(N2CCOCC2)c(C(F)(F)F)c1    72.7% (inactive)
COc1cc(-c2nc(-c3nnc(-c4ccccc4Cl)o3)c3ccccn23)cc(OC)c1OC    84.3% (inactive)

Look up growth with A498 renal for this compound: `Fc1ccc2nc(-c3nc(-c4ccccc4)n4ccccc34)[nH]c2c1`
-16.8% (active)

API: value(readout=growth, system=A498 renal) for record `COc1ccc(/C=C/C(C)=N/OCC(=O)O)cc1`
72.8% (inactive)

# returns recorded growth (system: A498 renal) for `CSc1nn(-c2ccccc2)c2ncnc(Oc3ccc(C)cc3)c12`
67.8% (inactive)

Could you share what growth was measured for `O=[N+]([O-])c1ccc(Oc2cccnc2)c([N+](=O)[O-])c1` , tested on A498 renal?
89.3% (inactive)

====

test system: SNB-19 CNS; experiment: NCI-60 one-dose screen, 48 h (100 = growth as untreated, 0 = no growth, -100 = all killed); settings: 10 µM
The panel holds about 83,000 compounds, 20% with a hit somewhere; the sample as a whole holds those more often.
QUANTITY_KIND: growth (%)
Your answer should be a plain number; it is taken to be in %.

Here are 5 compounds together with their reported answers.
COc1cc(-c2cc(/C=C/C(=O)c3ccc(Cl)c(Cl)c3)[nH]n2)cc(OC)c1OC    68
COc1cc(/C=C2\Oc3cc(OCC(=O)c4ccccc4)ccc3C2=O)cc(OC)c1OC    118
O=C1/C(=C\c2cn(C(=O)c3ccc(Cl)cc3)c3ccccc23)c2ccccc2N1C(=O)c1ccc(Cl)cc1    98.2
COc1ccc(-c2ccc(-c3ccc(C(=N)N)cn3)o2)cc1    91.5
Cn1c([N+](=O)[O-])cnc1/C=C1\Oc2cc(Cl)ccc2C1=O    15.6

Item `O=C(Nc1cccc(-n2cc(-c3ccncc3)c(-c3ccc(O)c(Cl)c3)n2)c1)c1ccc(N2CCOCC2)c(C(F)(F)F)c1` has what recorded growth?
67.9

Entry O=C(NN1C(=O)CSC1c1ccc(Cl)cc1)c1cccnc1 (centres undefined) has what growth?
113

Which growth value belongs to `Nc1nccc(Nc2ccccc2)n1` ?
116

Which growth value belongs to `CC1(C)CCC(=NNC(N)=S)CC1` ?
108

For the compound shown here, CCCN(CCC)CCC(O)c1cc2c(c3ccccc13)CCCC2 (centres undefined) , give the reported growth.
90.5

growth lookup needed for O=C(Nc1ccc(Cl)cc1)N1NC(c2ccc(Cl)cc2)C=C1c1ccccc1 (centres undefined) , thanks.
109

Would you kindly share the measured growth for `Cc1cs/c(=N\NC(=O)c2cc(-c3cc4ccccc4o3)nn2-c2ccccc2)n1-c1ccccc1` ?
92.8

// growth lookup, key: `COc1ccc2c(c1)[n+]([O-])c(C#N)c(NC(=O)c1ccco1)[n+]2[O-]`
95.6

Can you look up the measured growth of `C#Cc1ccc(-n2c(/C=C/c3ccc(O)cc3)nc3ncccc3c2=O)cc1` for me?
82
